Origin of values: patent US20260242478A1

Listed next: entries and their corresponding Phage binding ELISA signal, Anti-PSMA Fab.
Biological target: T1, PSMA Fab
T1 construct: Biotinylated and captured on neutravidin plates in the phage ELISA; also called Anti-PSMA Fab; 006 PSMA Fab
Assay: clonal phage ELISA on biotinylated PSMA Fab captured on neutravidin plates, anti-M13-HRP detection; blocking buffer alone
Where no end group is shown, it is not given here.
Would you mind answering with just the numeric figure?

INSERT INTO measurements (binder, reported_result) VALUES
  ('VPKWCIPVWMCEVM (cysteine pairing not given here; also: fused to phage pIII, linker and fusion site not given here, Clonal phage of the Peptide-180 library, tested as crude supernatant; not shown: pIII coat protein of the bacteriophage to which the peptide is fused) [Phage-2534]', 1.16);

Form: binder = LGHWCTPPWMCTES (cysteine pairing not given here; also: fused to phage pIII, linker and fusion site not given here, Clonal phage of the Peptide-180 library, tested as crude supernatant; not shown: pIII coat protein of the bacteriophage to which the peptide is fused) [Phage-2527] ; Phage binding ELISA signal, Anti-PSMA Fab = 1.17
